The following compounds are listed with their measured Activity values.
# Species: Rattus norvegicus
# Protocol Summary: Compound was tested for its antidiuretic activity
# Type: functional, Urine
Where a SMILES comes first, the peptide text is derived from it.

{"columns": ["Compound", "Activity [units/mg]"],
 "data": [
  ["COc1ccc(C[C@@H]2NC(=O)CCSSC[C@@H](C(=O)N3CCC[C@H]3C(=O)N[C@H](CCCN=C(N)N)C(=O)NCC(N)=O)NC(=O)[C@H](CC(N)=O)NC(=O)[C@H](CCC(N)=O)NC(=O)[C@H](Cc3ccccc3)NC2=O)cc1", 236],
  ["CCOc1ccc(C[C@@H]2NC(=O)CCSSC[C@@H](C(=O)N3CCC[C@H]3C(=O)N[C@@H](CCCN=C(N)N)C(=O)NCC(N)=O)NC(=O)[C@H](CC(N)=O)NC(=O)[C@H](C(C)C)NC(=O)[C@H](Cc3ccccc3)NC2=O)cc1", 187],
  ["CCOc1ccc(C[C@@H]2NC(=O)CCSSC[C@@H](C(=O)N3CCC[C@H]3C(=O)N[C@H](CCCN=C(N)N)C(=O)NCC(N)=O)NC(=O)[C@H](CC(N)=O)NC(=O)[C@H](C(C)C)NC(=O)[C@H](Cc3ccccc3)NC2=O)cc1", 132],
  ["CCOc1ccc(C[C@@H]2NC(=O)CCSSC[C@@H](C(=O)N3CCC[C@H]3C(=O)N[C@@H](CCCN=C(N)N)C(=O)NCC(N)=O)NC(=O)[C@H](CC(N)=O)NC(=O)[C@H](CCC(N)=O)NC(=O)[C@H](Cc3ccccc3)NC2=O)cc1", 242],
  ["CC(C)[C@@H]1NC(=O)[C@H](Cc2ccccc2)NC(=O)[C@H](Cc2ccc(O)cc2)NC(=O)CCSSC[C@@H](C(=O)N2CCC[C@H]2C(=O)N[C@@H](CCCN=C(N)N)C(=O)NCC(N)=O)NC(=O)[C@H](CC(N)=O)NC1=O (HELM PEPTIDE1{[O=C(CCS[*:3])[*:2]].Y.F.V.N.C.P.R.G.[am]}$PEPTIDE1,PEPTIDE1,1:R3-6:R3$$$V2.0)", 1150],
  ["CC(C)[C@@H]1NC(=O)[C@H](Cc2ccccc2)NC(=O)[C@H](Cc2ccc(O)cc2)NC(=O)CCSSC[C@@H](C(=O)N2CCC[C@H]2C(=O)N[C@H](CCCNC(=N)N)C(=O)NCC(N)=O)NC(=O)[C@H](CC(N)=O)NC1=O (HELM PEPTIDE1{[O=C(CCS[*:3])[*:2]].Y.F.V.N.C.P.[dR].G.[am]}$PEPTIDE1,PEPTIDE1,1:R3-6:R3$$$V2.0)", 1230],
  ["COc1ccc(C[C@@H]2NC(=O)CCSSC[C@@H](C(=O)N3CCC[C@H]3C(=O)N[C@@H](CCCN=C(N)N)C(=O)NCC(N)=O)NC(=O)[C@H](CC(N)=O)NC(=O)[C@H](C(C)C)NC(=O)[C@H](Cc3ccccc3)NC2=O)cc1", 789],
  ["COc1ccc(C[C@@H]2NC(=O)CCSSC[C@@H](C(=O)N3CCC[C@H]3C(=O)N[C@@H](CCCN=C(N)N)C(=O)NCC(N)=O)NC(=O)[C@H](CC(N)=O)NC(=O)[C@H](CCC(N)=O)NC(=O)[C@H](Cc3ccccc3)NC2=O)cc1", 830]
]}

###

# Organism: Rattus norvegicus
# Protocol Summary: In vitro anti-oxytocic activity on isolated estrogen treated rat uteri with 0.5 mM Mg+2
# Assay type: functional
# Condition Parameters: read-out: pA2 (converted)
The following molecules are listed with their measured Kb values.

{"columns": ["Chemical Structure", "Kb [nM]"],
 "data": [
  ["CCOc1ccc(C[C@@H]2NC(=O)CCSSC[C@@H](C(=O)N3CCC[C@H]3C(=O)N[C@@H](CCCN=C(N)N)C(=O)NCC(N)=O)NC(=O)[C@H](CC(N)=O)NC(=O)[C@H](CCC(N)=O)NC(=O)[C@H](Cc3ccccc3)NC2=O)cc1", 39.8],
  ["COc1ccc(C[C@@H]2NC(=O)CCSSC[C@@H](C(=O)N3CCC[C@H]3C(=O)N[C@H](CCCN=C(N)N)C(=O)NCC(N)=O)NC(=O)[C@H](CC(N)=O)NC(=O)[C@H](C(C)C)NC(=O)[C@H](Cc3ccccc3)NC2=O)cc1", 9.55],
  ["CCOc1ccc(C[C@@H]2NC(=O)CCSSC[C@@H](C(=O)N3CCC[C@H]3C(=O)N[C@H](CCCN=C(N)N)C(=O)NCC(N)=O)NC(=O)[C@H](CC(N)=O)NC(=O)[C@H](CCC(N)=O)NC(=O)[C@H](Cc3ccccc3)NC2=O)cc1", 89.1],
  ["CCOc1ccc(C[C@@H]2NC(=O)CCSSC[C@@H](C(=O)N3CCC[C@H]3C(=O)N[C@H](CCCN=C(N)N)C(=O)NCC(N)=O)NC(=O)[C@H](CC(N)=O)NC(=O)[C@H](C(C)C)NC(=O)[C@H](Cc3ccccc3)NC2=O)cc1", 22.9],
  ["CCOc1ccc(C[C@@H]2NC(=O)CCSSC[C@@H](C(=O)N3CCC[C@H]3C(=O)N[C@@H](CCCN=C(N)N)C(=O)NCC(N)=O)NC(=O)[C@H](CC(N)=O)NC(=O)[C@H](C(C)C)NC(=O)[C@H](Cc3ccccc3)NC2=O)cc1", 22.9],
  ["COc1ccc(C[C@@H]2NC(=O)CCSSC[C@@H](C(=O)N3CCC[C@H]3C(=O)N[C@H](CCCN=C(N)N)C(=O)NCC(N)=O)NC(=O)[C@H](CC(N)=O)NC(=O)[C@H](CCC(N)=O)NC(=O)[C@H](Cc3ccccc3)NC2=O)cc1", 39.8],
  ["COc1ccc(C[C@@H]2NC(=O)CCSSC[C@@H](C(=O)N3CCC[C@H]3C(=O)N[C@@H](CCCN=C(N)N)C(=O)NCC(N)=O)NC(=O)[C@H](CC(N)=O)NC(=O)[C@H](C(C)C)NC(=O)[C@H](Cc3ccccc3)NC2=O)cc1", 19.5]
]}

###

# Species: Rattus norvegicus
# Protocol Summary: In vitro anti-oxytocic activity on isolated estrogen treated rat uteri without Mg+2
# Format: functional
# Condition Parameters: read-out: pA2 (converted)
The following compounds are listed with their measured Kb values.
Quantity Name: Kb

{"columns": ["Chemical Structure", "Result"],
 "data": [
  ["COc1ccc(C[C@@H]2NC(=O)CCSSC[C@@H](C(=O)N3CCC[C@H]3C(=O)N[C@H](CCCN=C(N)N)C(=O)NCC(N)=O)NC(=O)[C@H](CC(N)=O)NC(=O)[C@H](CCC(N)=O)NC(=O)[C@H](Cc3ccccc3)NC2=O)cc1", "0.0117 µM"],
  ["CCOc1ccc(C[C@@H]2NC(=O)CCSSC[C@@H](C(=O)N3CCC[C@H]3C(=O)N[C@@H](CCCN=C(N)N)C(=O)NCC(N)=O)NC(=O)[C@H](CC(N)=O)NC(=O)[C@H](CCC(N)=O)NC(=O)[C@H](Cc3ccccc3)NC2=O)cc1", "0.0427 µM"],
  ["COc1ccc(C[C@@H]2NC(=O)CCSSC[C@@H](C(=O)N3CCC[C@H]3C(=O)N[C@@H](CCCN=C(N)N)C(=O)NCC(N)=O)NC(=O)[C@H](CC(N)=O)NC(=O)[C@H](C(C)C)NC(=O)[C@H](Cc3ccccc3)NC2=O)cc1", "0.0117 µM"]
]}

###

# Species on record: Rattus norvegicus
# Protocol Summary: In vitro anti-oxytocic activity on isolated estrogen treated rat uteri without Mg+2
# Format: functional
# Condition Parameters: read-out: pA2 (converted)
The following molecules are listed with their measured Kb values.
Quantity Name: Kb (nM)

{"columns": ["Chemical Structure", "Quantity Name", "Numeric Result"],
 "data": [
  ["CCOc1ccc(C[C@@H]2NC(=O)CCSSC[C@@H](C(=O)N3CCC[C@H]3C(=O)N[C@H](CCCN=C(N)N)C(=O)NCC(N)=O)NC(=O)[C@H](CC(N)=O)NC(=O)[C@H](C(C)C)NC(=O)[C@H](Cc3ccccc3)NC2=O)cc1", "Kb", 28.2],
  ["CCOc1ccc(C[C@@H]2NC(=O)CCSSC[C@@H](C(=O)N3CCC[C@H]3C(=O)N[C@@H](CCCN=C(N)N)C(=O)NCC(N)=O)NC(=O)[C@H](CC(N)=O)NC(=O)[C@H](C(C)C)NC(=O)[C@H](Cc3ccccc3)NC2=O)cc1", "Kb", 12.6],
  ["COc1ccc(C[C@@H]2NC(=O)CCSSC[C@@H](C(=O)N3CCC[C@H]3C(=O)N[C@H](CCCN=C(N)N)C(=O)NCC(N)=O)NC(=O)[C@H](CC(N)=O)NC(=O)[C@H](C(C)C)NC(=O)[C@H](Cc3ccccc3)NC2=O)cc1", "Kb", 17],
  ["CCOc1ccc(C[C@@H]2NC(=O)CCSSC[C@@H](C(=O)N3CCC[C@H]3C(=O)N[C@H](CCCN=C(N)N)C(=O)NCC(N)=O)NC(=O)[C@H](CC(N)=O)NC(=O)[C@H](CCC(N)=O)NC(=O)[C@H](Cc3ccccc3)NC2=O)cc1", "Kb", 52.5]
]}
